Test system: MDA−MB−231 cells
measurement_description: Cellular uptake of Pt by ICP-MS
Assay type: cell-based
measurement_parameters: MDA−MB−231, extracellular 3 µM, 24 h
Procedure: A final concentration of 10^6 cells/well of MDA−MB−231 and HT29 cells were seeded in 6-well plates and incubated overnight to adhere. The cells were then treated with a final concentration of 3 µM of either Pt^II or Pt^IV complexes. After 0, 0.5, 1, 3, 6, 12, 24 or 30 h, the medium was removed, and the cells were washed three times with cold PBS and allowed to dry. […] The results represent an average of three different experiments run in triplicate (±SEM) and expressed as nmol/10^6 cells or µM/cell. […]
Flag rule - Intracellular/extracellular ratio less than 800 flags label 1; the remaining entries get label 0.

Study these solved cases before continuing.
[[record]]
smi = "Cc1cc2cccnc2c2ncccc12.N[C@H]1CCCC[C@@H]1N.O=[N+]([O-])[O-].O=[N+]([O-])[O-].[Pt+2]"
class_assignment = "label 0"

[[record]]
smi = "Cc1c(C)c2cccnc2c2ncccc12.N[C@H]1CCCC[C@@H]1N.O=[N+]([O-])[O-].O=[N+]([O-])[O-].[Pt+2]"
class_assignment = "label 0"

[[record]]
smi = "Cc1c(C)c2cccnc2c2ncccc12.N[C@H]1CCCC[C@@H]1N.O=[N+]([O-])[O-].O=[N+]([O-])[O-].[OH][Pt+2][OH]"
class_assignment = "label 0"

[[record]]
smi = "N[C@H]1CCCC[C@@H]1N.O=[N+]([O-])[O-].O=[N+]([O-])[O-].[OH-].[OH-].[Pt+4].c1cnc2c(c1)ccc1cccnc12"
class_assignment = "label 1"

[[record]]
smi = "N[C@H]1CCCC[C@@H]1N.O=[N+]([O-])[O-].O=[N+]([O-])[O-].[Pt+2].c1cnc2c(c1)ccc1cccnc12"
class_assignment = "label 1"


Find out if reported Intracellular/extracellular ratio for Cc1cc2cccnc2c2ncccc12.N[C@H]1CCCC[C@@H]1N.O=[N+]([O-])[O-].O=[N+]([O-])[O-].[OH][Pt+2][OH] is less than 800
label 1

* * *

Tested on: MDA−MB−231 cells
measurement_description: Western blot protein expression
Assay type: cell-based
measurement_parameters: MDA−MB−231, IC50, 72 h, representative blot Figure S26A
assay_endpoint: Bax/GAPDH normalized to control (1)
Answer as a number with no unit attached.

Solved cases (2 shown):
[[record]]
smi = "Cc1cc2cccnc2c2ncccc12.N[C@H]1CCCC[C@@H]1N.O=[N+]([O-])[O-].O=[N+]([O-])[O-].[Pt+2]"
assay_endpoint = "Bax/GAPDH normalized to control (1)"
quantitative_readout = 1.886

[[record]]
smi = "N[C@H]1CCCC[C@@H]1N.O=[N+]([O-])[O-].O=[N+]([O-])[O-].[Pt+2].c1cnc2c(c1)ccc1cccnc12"
assay_endpoint = "Bax/GAPDH normalized to control (1)"
quantitative_readout = 1.161


With those in mind, consider the next compound.
Specify reported Bax/GAPDH normalized to control (1) for the compound shown: Cc1c(C)c2cccnc2c2ncccc12.N[C@H]1CCCC[C@@H]1N.O=[N+]([O-])[O-].O=[N+]([O-])[O-].[Pt+2]
1.276

* * *

System: MDA−MB−231 cells
measurement_description: Cellular uptake of Pt by ICP-MS
Type: cell-based
measurement_parameters: MDA−MB−231, extracellular 3 µM, 12 h
assay_endpoint: Intracellular/extracellular ratio
Answer as a number with no unit attached.

Solved cases (3 shown):
[[record]]
smi = "N[C@H]1CCCC[C@@H]1N.O=[N+]([O-])[O-].O=[N+]([O-])[O-].[OH-].[OH-].[Pt+4].c1cnc2c(c1)ccc1cccnc12"
assay_endpoint = "Intracellular/extracellular ratio"
quantitative_readout = 98.56

[[record]]
smi = "Cc1c(C)c2cccnc2c2ncccc12.N[C@H]1CCCC[C@@H]1N.O=[N+]([O-])[O-].O=[N+]([O-])[O-].[OH][Pt+2][OH]"
assay_endpoint = "Intracellular/extracellular ratio"
quantitative_readout = 548.82

[[record]]
smi = "N[C@H]1CCCC[C@@H]1N.O=[N+]([O-])[O-].O=[N+]([O-])[O-].[Pt+2].c1cnc2c(c1)ccc1cccnc12"
assay_endpoint = "Intracellular/extracellular ratio"
quantitative_readout = 407.32


Output reported Intracellular/extracellular ratio of the compound Cc1cc2cccnc2c2ncccc12.N[C@H]1CCCC[C@@H]1N.O=[N+]([O-])[O-].O=[N+]([O-])[O-].[Pt+2] on MDA−MB−231 cells.
757.65

Output reported Intracellular/extracellular ratio of the compound Cc1c(C)c2cccnc2c2ncccc12.N[C@H]1CCCC[C@@H]1N.O=[N+]([O-])[O-].O=[N+]([O-])[O-].[Pt+2] on MDA−MB−231 cells.
754.52

Output reported Intracellular/extracellular ratio of the compound Cc1cc2cccnc2c2ncccc12.N[C@H]1CCCC[C@@H]1N.O=[N+]([O-])[O-].O=[N+]([O-])[O-].[OH][Pt+2][OH] on MDA−MB−231 cells.
186.97
